Hey, just so you know, these numbers are from patent US20220160680A1.

# Tested on: Vibrio cholerae MM920
# assay_notes: Quorum sensing bioluminescence reporter assay
# Assay type: cell-based
# measurement_context: Vibrio cholerae; high volume; read-out: IC50 of QS inhibition in V. cholera
reported_endpoint: IC50 (µM)
Just the number please, in µM, no unit attached.

Kindly note the recorded IC50 for CC(=O)OCCc1c[nH]c2ccccc12 [Tryptophol acetate] , which is 12.7
